result type: melting point (°C)

a: Cc1ccc(NC(=O)c2ccc([C@H]3OC[C@H](S[C@H](C)[C@](O)(Cn4cncn4)c4ccc(F)cc4F)CO3)cc2)cc1
b: C[C@@H](S[C@H]1CO[C@H](c2ccc(C(=O)Nc3ccc(Br)cc3)cc2)OC1)[C@](O)(Cn1cncn1)c1ccc(F)cc1F
Query string: Thinking about recorded melting point values, which is higher, a or b ? Mark your answer with the label of the selected entry.
Result string: b
(b: 221 °C, a: 101 °C)

a: C[C@@H](S[C@H]1CO[C@H](c2ccc(C(=O)Nc3ccc(O)cc3)cc2)OC1)[C@](O)(Cn1cncn1)c1ccc(F)cc1F
b: CC(=O)c1ccc(NC(=O)c2ccc([C@H]3OC[C@H](S[C@H](C)[C@](O)(Cn4cncn4)c4ccc(F)cc4F)CO3)cc2)cc1
Query string: I would appreciate it if you could say which entry, a or b , has the lower melting point value. Respond with the label that goes with your answer.
Result string: b
(b: 171 °C, a: 254 °C)

###

result type: melting point (°C)

Worked set:
C[C@@H](S[C@H]1CO[C@H](c2ccc(C(=O)Nc3ccc(C#N)c4ccccc34)cc2)OC1)[C@](O)(Cn1cncn1)c1ccc(F)cc1F	109
C[C@@H](S[C@H]1CO[C@H](c2ccc(C(=O)Nc3ccc(C(N)=O)cc3)cc2)OC1)[C@](O)(Cn1cncn1)c1ccc(F)cc1F	230
C[C@@H](S[C@H]1CO[C@H](c2ccc(C(=O)Nc3nc4ccccc4s3)cc2)OC1)[C@](O)(Cn1cncn1)c1ccc(F)cc1F	107
C[C@@H](S[C@H]1CO[C@H](c2ccc(C(=O)Nc3nccs3)cc2)OC1)[C@](O)(Cn1cncn1)c1ccc(F)cc1F	108

a: C[C@@H](S[C@H]1CO[C@H](c2ccc(C(=O)Nc3ccc(SC(F)(F)F)cc3)cc2)OC1)[C@](O)(Cn1cncn1)c1ccc(F)cc1F
b: C[C@@H](S[C@H]1CO[C@H](c2ccc(C(=O)NCc3ccc(C#N)cc3)cc2)OC1)[C@](O)(Cn1cncn1)c1ccc(F)cc1F
Query string: Record comparison, field melting point: mark the lower of a and b . The response must carry the label of the picked entry.
Result string: a

###

result type: melting point (°C)

Some entries whose results are on file:
C[C@@H](S[C@H]1CO[C@H](c2cccc(C(=O)Nc3ccc(Cl)cc3)c2)OC1)[C@](O)(Cn1cncn1)c1ccc(F)cc1F	90
C[C@@H](S[C@H]1CO[C@H](c2ccc(C(=O)Nc3ccc(OC(F)(F)F)cc3)cc2)OC1)[C@](O)(Cn1cncn1)c1ccc(F)cc1F	180
C[C@@H](S[C@H]1CO[C@H](c2ccc(C(=O)Nc3ccc(CC#N)cc3)cc2)OC1)[C@](O)(Cn1cncn1)c1ccc(F)cc1F	188

P: C[C@@H](S[C@H]1CO[C@H](c2ccc(C(=O)Nc3ccncc3)cc2)OC1)[C@](O)(Cn1cncn1)c1ccc(F)cc1F
Q: C[C@@H](S[C@H]1CO[C@H](c2ccc(C(=O)Nc3ccc(C(F)(F)F)cc3)cc2)OC1)[C@](O)(Cn1cncn1)c1ccc(F)cc1F
Query string: Which one would you say has the larger melting point value: P , or Q ? Output the label that corresponds to your choice.
Result string: Q
(Q: 210 °C, P: 133 °C)

a: C[C@@H](S[C@H]1CO[C@H](c2cccc(C(=O)Nc3ccc(C#N)cc3)c2)OC1)[C@](O)(Cn1cncn1)c1ccc(F)cc1F
b: C[C@@H](S[C@H]1CO[C@H](c2ccc(C(=O)Nc3ccc(OCC(F)(F)C(F)F)cc3)cc2)OC1)[C@](O)(Cn1cncn1)c1ccc(F)cc1F
Query string: Field: lower melting point | Options: a / b API: response body contains the label of the selected item.
Result string: a

a: C[C@@H](S[C@H]1CO[C@H](c2ccc3cc(C(=O)Nc4ccc(C#N)cc4)ccc3c2)OC1)[C@](O)(Cn1cncn1)c1ccc(F)cc1F
b: C[C@@H](S[C@H]1CO[C@H](c2ccc(C(=O)Nc3ccc(C#N)c(C#N)c3)cc2)OC1)[C@](O)(Cn1cncn1)c1ccc(F)cc1F
Query string: Could you kindly indicate whether a or b has the higher melting point value? // return label of chosen record
Result string: b

###

result type: melting point (°C)

C[C@@H](S[C@H]1CO[C@H](c2ccc(C(=O)Nc3ccc(F)cc3)cc2)OC1)[C@](O)(Cn1cncn1)c1ccc(F)cc1F [Example 10]	104

P: C[C@@H](S[C@H]1CO[C@H](c2ccc(C(=O)NCc3cccc4ccccc34)cc2)OC1)[C@](O)(Cn1cncn1)c1ccc(F)cc1F [Example 29]
Q: C[C@@H](S[C@H]1CO[C@H](c2ccc(C(=O)Nc3ccc(Cl)cc3)cc2)OC1)[C@](O)(Cn1cncn1)c1ccc(F)cc1F [Example 8]
Query string: Hi team, can someone confirm which has the larger melting point: P or Q ? Thanks. Reply with the label of the item you choose.
Result string: Q

###

result type: melting point (°C)

C[C@@H](C[C@H]1CO[C@H](c2ccc(C(=O)Nc3ccc(C#N)cc3)cc2)OC1)[C@](O)(Cn1cncn1)c1ccc(F)cc1F	159
C[C@@H](S[C@H]1CO[C@H](c2ccc(C(=O)Nc3ccc([N+](=O)[O-])cc3)cc2)OC1)[C@](O)(Cn1cncn1)c1ccc(F)cc1F	189
C[C@@H](S[C@H]1CO[C@H](c2ccc(C(=O)Nc3c(F)c(F)c(C#N)c(F)c3F)cc2)OC1)[C@](O)(Cn1cncn1)c1ccc(F)cc1F	182
C[C@@H](S[C@H]1CO[C@H](c2ccc(C(=O)Nc3ccc(C#N)cc3F)cc2)OC1)[C@](O)(Cn1cncn1)c1ccc(F)cc1F	136

###

result type: melting point (°C)

C[C@@H](S[C@H]1CO[C@H](c2ccc(C(=O)Nc3ccc(C#N)cc3)cc2F)OC1)[C@](O)(Cn1cncn1)c1ccc(F)cc1F	110
C[C@@H](S[C@H]1CO[C@H](c2ccc(C(=O)Nc3ccc(C#N)cc3)cc2)OC1)[C@](O)(Cn1cncn1)c1ccc(F)cc1F	176
C[C@@H](S[C@H]1CO[C@H](c2ccc(C(=O)Nc3ccc(C#N)c(Cl)c3)cc2)OC1)[C@](O)(Cn1cncn1)c1ccc(F)cc1F	115
CC(=O)Oc1ccc(NC(=O)c2ccc([C@H]3OC[C@H](S[C@H](C)[C@](O)(Cn4cncn4)c4ccc(F)cc4F)CO3)cc2)cc1	127
